Cited source: patent US20250051314A1

System: IFNγ-induced tyrosine phosphorylation of STAT1 (pSTAT1)
TEST_METHOD_NOTES: JAK/STAT signalling activation assay (pSTAT1/tSTAT1 immunoblot)
Format: cell-based
CONDITIONS: Homo sapiens; Hela cells, 1000 U/ml IFNγ pre-incubated 20 min with compound, non-linear curve fit, n=3; read-out: IC50 pSTAT1 inhibition
pIC50 for assorted compounds
The quantity pIC50 is defined as the negative base-10 logarithm of the molar concentration.

Examples with their reported pIC50 follow.
> print(dat)
                            smiles.notation  value.reported
1  C#Cc1ccc(C=C2C(=O)N(c3cccc(F)c3)C(=S)N(c3cccc(F)c3)C2=O)o1            5.22
2  C#Cc1ccc(C=C2C(=O)NC(=S)N(c3cccc(Br)c3)C2=O)o1            5.97
3  C#Cc1ccc(C=C2C(=O)NC(=S)N(c3cccc(F)c3)C2=O)o1            5.98

Would you kindly look at the next entry?
Exam item: // returns reported pIC50 for input C#Cc1ccc(C=C2C(=O)N(c3cccc(Br)c3)C(=S)N(c3cccc(Br)c3)C2=O)o1
Marked response: 5.33
